test: qHTS to identify inhibitors of the type 1 interferon - major histocompatibility complex class I in skeletal muscle: primary screen against the NCATS Mechanism Interrogation Plate v5.0 (MIPE) Libary (AID 1347411); settings: iHSKM cells + IFN-b, HiBiT-tagged MHC-I luminescence, 24 h; series mostly up to 45.8 µM; note: nearly all actives have a fitted effect of over 65% in size
Results filed as inconclusive are left out. Calls of active or inactive are those of the source. Calls come from the whole dose curve; as a rule, active = well fitted inhibition curve with a large enough effect; inconclusive = small, poorly fitted or top-dose-only effect; inactive = no such curve, though single readings can be large or run the other way.
Outcome codes: active, inactive

COc1cc(NC(=O)c2ccc(-c3ccc(Cl)cc3)o2)cc(OC)c1 | inactive
O=C(NOCC(O)CO)c1cc(Br)c(F)c(F)c1Nc1ccc(I)cc1F (stereo not given) | inactive
O=C(NCc1ccncc1)C12C[C@H]3C[C@@H](C1)CC(c1ccc(Cl)cc1)(C3)C2 | inactive
COc1ccc(C2CC(c3ccccc3)=NN2c2ccc(S(N)(=O)=O)cc2)cc1 (stereo not given) | inactive
O=C1C[C@@H](c2ccc(O)cc2)Oc2cc(O)cc(O)c21 | inactive
c1cc(-c2sc(-c3ccncc3)c(-c3ccncc3)c2-c2ccncc2)ccn1 | inactive
Cc1nc(N)sc1-c1ccnc(Nc2ccc(N3CCOCC3)cc2)n1 | active
C=C1C(=O)OC(CCCCCCCC)C1C(=O)O (stereo not given) | active
O=C(O)c1c(Cl)c(Cl)c(Cl)c(Cl)c1-c1c2cc(I)c(=O)c(I)c-2oc2c(I)c(O)c(I)cc12 | active
O=C(NC1CCOCC1)c1ccc(-c2cc(-c3cn[nH]c3-c3ccccn3)ccn2)cc1 | inactive
COc1cccc([C@@H](C)NCCCc2ccccc2Cl)c1 | inactive
Cc1ccc(C(C)(O)c2nc3ccccc3s2)c(C)c1 (stereo not given) | inactive
COc1cccc(-c2cc(=O)c3ccccc3o2)c1N | inactive
O=C1C(Cl)=C(NCCN2CCOCC2)C(=O)c2ncccc21 | active
CC(C)C[C@H](CC(=O)O)C(=O)N[C@@H](Cc1c[nH]c2ccccc12)C(=O)N[C@@H](C)c1ccccc1 | inactive
N[C@@]1(C(=O)O)CS(=O)(=O)[C@H]2[C@H](C(=O)O)[C@H]21 | inactive
COc1cc(N2CCC(N3CCN(C)CC3)CC2)ccc1Nc1ncnc(Nc2ccccc2S(=O)(=O)C(C)C)n1 | active
NC(=O)c1cnc(-c2ccc(C3(N)CCC3)cc2)c(-c2ccccc2)c1 | inactive
N[C@H](CSC(c1ccccc1)(c1ccccc1)c1ccccc1)C(=O)O | inactive
CC/C(=C(\c1ccccc1)c1ccc(OCCN(C)C)cc1)c1ccccc1 | active
COC(=O)[C@@H]1[C@H]2C[C@H]3c4[nH]c5ccccc5c4CCN3C[C@@H]2CC[C@@H]1O | inactive
Clc1ccc(Cn2c(CN3CCCC3)nc3ccccc32)cc1 | inactive
c1ccc2c(-c3cnn4cc(-c5ccc(N6CCNCC6)cc5)cnc34)ccnc2c1 | active
O=C(O)C(O)Cc1ccc(O)c(O)c1 (stereo not given) | inactive
COc1ccc(-c2nc(N3CCOCC3)c3sc(CN(C)c4ncc(C(=O)NO)cn4)cc3n2)cn1 | active
O=C(O)c1ccccc1C(=O)Nc1ccc(-c2ccccc2)cc1 | active
CNC(=O)c1ccc2cc(C3(O)CCn4cncc43)ccc2c1 (stereo not given) | inactive
O=C(CCCCCCC(=O)Nc1ccccc1)NO | active
COCCOC(=O)C1=C(C)NC2=C(C(=O)CC(c3ccccc3OC)C2)C1c1cccc(O)c1 (stereo not given) | inactive
CC(C)(C)OC(=O)N[C@H]1CCCCCC=C[C@@H]2C[C@@]2(C(=O)NS(=O)(=O)C2CC2)NC(=O)[C@@H]2C[C@@H](OC(=O)N3Cc4cccc(F)c4C3)CN2C1=O | inactive

---

molecular target: Phospholipid hydroperoxide glutathione peroxidase GPX4 (Homo sapiens) (UniProt P36969); assay: Primary qHTS Assay for Inhibitors of Recombinant Selenoprotein Glutathione Peroxidase 4 (GPX4) (AID 1845192); conditions: recombinant GPX4, GR-coupled NADPH fluorescence, 15 min; series mostly up to 50 µM; note: nearly all actives have a fitted effect of over 65% in size
Sequence (P36969 whole entry, looked up): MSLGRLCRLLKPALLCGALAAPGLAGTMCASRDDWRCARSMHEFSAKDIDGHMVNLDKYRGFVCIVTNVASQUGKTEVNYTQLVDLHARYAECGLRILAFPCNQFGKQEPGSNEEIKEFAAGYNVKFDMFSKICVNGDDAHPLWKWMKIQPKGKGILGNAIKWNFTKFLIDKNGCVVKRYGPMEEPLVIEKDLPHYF
Results filed as inconclusive are left out. Active and inactive are the calls of the source. Calls come from the whole dose curve; as a rule, active = well fitted inhibition curve with a large enough effect; inconclusive = small, poorly fitted or top-dose-only effect; inactive = flat fitted curve, though single readings scatter.
Outcome codes: active, inactive

COc1ccccc1N1CCN(CCCNc2cc(=O)n(C)c(=O)n2C)CC1 | inactive
CS(=O)c1ccc(-c2nc(-c3ccc(F)cc3)c(-c3ccncc3)[nH]2)cc1 (stereo not given) | active
Nc1ncnc2c1nc(Cl)n2[C@@H]1O[C@H](CO)[C@@H](O)[C@@H]1O | inactive
CCOC(CN1C(=O)[C@](CC(=O)Nc2ccc(C)cc2)(NC(=O)Nc2ccc(C)cc2)c2ccccc21)OCC | inactive
COc1cc(N2CCC(N3CCN(C)CC3)CC2)ccc1Nc1ncc(Cl)c(Nc2ccccc2S(=O)(=O)C(C)C)n1 | inactive
CC1CCC(C(=O)N(c2cc(C#CC(C)(C)C)sc2C(=O)O)C2CCC(O)CC2)CC1 (stereo not given) | active
C=C1C(=O)OC(CCCCCCCC)C1C(=O)O (stereo not given) | inactive
CCOC(=O)C1=C(N)Oc2ccc(Br)cc2C1C(C#N)C(=O)OCC (stereo not given) | inactive
O=C(NCc1ccncc1)C12C[C@H]3C[C@@H](C1)CC(c1ccc(Cl)cc1)(C3)C2 | inactive
O=c1cc(-c2ccc(O)cc2)oc2cc(O)cc(O)c12 | inactive
O=C(N[C@@H](c1ccccc1)[C@@H]1CCCCN1)c1cccc(C(F)(F)F)c1Cl | inactive
O=C(O)CCc1nc(-c2ccccc2)c(-c2ccccc2)o1 | inactive
CC(C(=O)O)c1ccc(-c2ccccc2)c(F)c1 (stereo not given) | inactive
CC(=O)O[C@]1(C(C)=O)CC[C@H]2[C@@H]3C=C(Cl)C4=CC(=O)[C@@H]5C[C@@H]5[C@]4(C)[C@H]3CC[C@@]21C | inactive
CC/C(=C(\c1ccccc1)c1ccc(OCCN(C)C)cc1)c1ccccc1 | inactive
CN(C)Cc1cccc(N=C(c2ccccc2)c2c(O)[nH]c3cc(C(=O)N(C)C)ccc23)c1 | inactive
COc1cc(N2CCC(N3CCN(C)CC3)CC2)ccc1Nc1ncnc(Nc2ccccc2S(=O)(=O)C(C)C)n1 | inactive
Clc1cc(Cl)cc(CNc2ncncc2-c2ccc3c(c2)OCO3)c1 | inactive
Cc1ccccc1C(C(=O)NC1CCCCC1)N(C(=O)Cn1ccnc1C)c1cccc(F)c1 (stereo not given) | inactive
CN1C[C@H]2c3ccccc3Oc3ccc(Cl)cc3[C@@H]2C1 | inactive

---

experiment: Drug repurposing screens with cells derived from glioblastoma tumor samples (AID 1345199); conditions: GBM patient neurospheres viability, ATP luminescence, 48 h; at 46 µM (top of the series); tumour line A; note: % is set by controls: 0 for no effect and ±100 for the full control effect; nearly all actives have a fitted effect of over 40% in size
Results filed as inconclusive are left out. Calls of active or inactive are those of the source. Calls follow the shape of the dose curve; as a rule, active = well fitted inhibition curve with a large enough effect; inconclusive = small, poorly fitted or top-dose-only effect; inactive = flat fitted curve, though single readings scatter.
property_label: activity, negative = cell killing

CC(=O)Oc1cc2c(s1)CCN(C(C(=O)C1CC1)c1ccccc1F)C2 (stereo not given) | -27.4% (inactive)
CN(C)CCC(c1ccccc1)c1ccccn1 (stereo not given) | -22.4% (inactive)
C[N+](C)(C)CCCCCC[N+](C)(C)C | -4.52% (inactive)
CN(C)c1cc(NC(=O)CNC(C)(C)C)c(O)c2c1C[C@@H]1C[C@H]3[C@H](N(C)C)C(=O)C(C(N)=O)=C(O)[C@@]3(O)C(=O)C1=C2O | -27.8% (inactive)
O=C(O)Cc1cccc2ccccc12 | -19.6% (inactive)

---

assay: qHTS Screen of the MIPE 4.0 Collection Against Ewings Sarcoma (RDES) (AID 1259252); conditions: RD-ES Ewing sarcoma viability, CellTiter-Glo, 48 h; series mostly up to 45.8 µM; note: nearly all actives have a fitted effect of over 35% in size
Inconclusive results are not listed. The source made the active and inactive calls. The call rests on the fitted dose curve; in most records, active means well fitted inhibition curve with a large enough effect; inconclusive means small, poorly fitted or top-dose-only effect; inactive means no such curve, though single readings can be large or run the other way.
Outcome codes: 1.0 for active, 0.0 for inactive

CCn1cc(C(=O)O)c(=O)c2ccc(C)nc21 | 0.0
COc1ccc(Cc2nccc3cc(OC)c(OC)cc23)cc1OC | 1.0
C[C@@H]1CCN(C(=O)CC#N)C[C@H]1N(C)c1ncnc2[nH]ccc12 | 0.0
Cc1ccccc1C(C(=O)NC1CCCCC1)N(C(=O)Cn1ccnc1C)c1cccc(F)c1 (stereo not drawn) | 0.0
CC[C@]1(O)C[C@@H]2CN(CCc3c([nH]c4ccccc34)[C@@](C(=O)OC)(c3cc4c(cc3OC)N(C=O)[C@@H]3C45CCN4CC=C[C@](CC)([C@H]45)[C@@H](OC(C)=O)[C@]3(O)C(=O)OC)C2)C1 (stereo partly drawn) | 1.0
CC1(C)CCC2=C(O1)c1ccccc1C(=O)C2=O | 1.0
CC(=O)Nc1ccc([C@H](C)C(=O)Nc2ncc(C(C)C)s2)cc1 | 1.0
CC[C@@]1(O)C[C@H](O[C@H]2C[C@H](N(C)C)[C@H](O[C@H]3C[C@H](O)[C@H](O[C@H]4CCC(=O)[C@H](C)O4)[C@H](C)O3)[C@H](C)O2)c2c(cc3c(c2O)C(=O)c2c(O)cccc2C3=O)[C@@H]1C(=O)OC | 1.0

---

test: Quantitative High-Throughput drug screen in 47 multiple myeloma cell lines against the NCATS MIPE library collection: KMM1_JCRB cell viability assay (AID 1918960); settings: KMM1 myeloma viability, CellTiter-Glo ATP luminescence, 48 h; series mostly up to 45.8 µM; note: nearly all actives have a fitted effect of over 30% in size; note: potency is the fitted concentration of half-maximal effect
Results filed as inconclusive are left out. The source made the active and inactive calls. Calls come from the whole dose curve; as a rule, active = well fitted cell-killing curve with a large enough effect; inconclusive = small, poorly fitted or top-dose-only effect, or effect the other way; inactive = no such curve, though single readings can be large or run the other way.
property_label: Potency

O=c1[nH]cnc2c1ncn2[C@H]1CC[C@@H](CO)O1 | inactive
CC(=O)N(C)C1(c2ccccc2)CCN(CCC[C@]2(c3ccc(Cl)c(Cl)c3)CCCN(C(=O)c3ccccc3)C2)CC1 | 14.8 µM (active)
C[C@]12CCC3c4ccc(O)cc4CCC3C1CCC2=O (stereo partly drawn) | inactive
CC(=O)Nc1ccc([C@H](C)C(=O)Nc2ncc(C(C)C)s2)cc1 | 5.26 µM (active)
CC=CCC(C)C(O)C1C(=O)NC(CC)C(=O)N(C)CC(=O)N(C)C(CC(C)C)C(=O)NC(C(C)C)C(=O)N(C)C(CC(C)C)C(=O)NC(C)C(=O)NC(C)C(=O)N(C)C(CC(C)C)C(=O)N(C)C(CC(C)C)C(=O)N(C)C(C(C)C)C(=O)N1C (stereo not drawn) | inactive
COc1cc2ncnc(Nc3ccc(F)c(Cl)c3)c2cc1OCCCN1CCOCC1 | 8.55 µM (active)
CCc1ccc(OCc2ccccc2C(=O)Nc2ccc3nc(C)cc(N)c3c2)cc1 | 2.64 µM (active)
CC(=Cc1ccccc1)C=C1SC(=S)N(CC(=O)O)C1=O | inactive
O=C(CCN1CCN(C(=O)OCc2cc(Cl)cc(Cl)c2)CC1)c1ccc2[nH]c(=O)oc2c1 | inactive
O=C(O)CCC1CCC(c2cc(F)ccc2F)(S(=O)(=O)c2ccc(Cl)cc2)CC1 (stereo not drawn) | 16.6 µM (active)
O=C(NOCC(O)CO)c1cc(Br)c(F)c(F)c1Nc1ccc(I)cc1F (stereo not drawn) | inactive
O=c1c(O)c(-c2ccc(O)cc2)oc2cc(O)cc(O)c12 | 16.6 µM (active)
CCOc1ccc(Nc2nc(-c3c(C)nc4ccccn34)cs2)cc1 | 0.001 µM (active)
CN1CCN(CCOc2cc(OC3CCOCC3)c3c(Nc4c(Cl)ccc5c4OCO5)ncnc3c2)CC1 | 14.8 µM (active)
C=C1C(=O)[C@@]23C(CC[C@@H]1[C@H]2O)[C@@]12CO[C@]3(O)[C@@H](O)[C@@H]1C(C)(C)CC[C@@H]2O (stereo partly drawn) | 2.35 µM (active)
CS(=O)c1ccc(-c2nc(-c3ccc(F)cc3)c(-c3ccncc3)[nH]2)cc1 (stereo not drawn) | 34 µM (active)
CC(C(=O)O)c1ccc(-c2ccccc2)c(F)c1 (stereo not drawn) | inactive
Cc1cc(OCCCc2c(C(=O)O)n(Cc3cccnc3)c3c(-c4c(COc5ccc(N6CCN([S+](C)(=O)[O-])CC6)cc5)nn(C)c4C)cccc23)cc(C)c1Cl | 9.35 µM (active)
